Quick reference: pKd of the listed items.
- Tgt: T1, BoNT/F1 (proteolytic BoNT/F) (Clostridium botulinum, UniProt A7GBG3 1-1278)
- T1 sequence: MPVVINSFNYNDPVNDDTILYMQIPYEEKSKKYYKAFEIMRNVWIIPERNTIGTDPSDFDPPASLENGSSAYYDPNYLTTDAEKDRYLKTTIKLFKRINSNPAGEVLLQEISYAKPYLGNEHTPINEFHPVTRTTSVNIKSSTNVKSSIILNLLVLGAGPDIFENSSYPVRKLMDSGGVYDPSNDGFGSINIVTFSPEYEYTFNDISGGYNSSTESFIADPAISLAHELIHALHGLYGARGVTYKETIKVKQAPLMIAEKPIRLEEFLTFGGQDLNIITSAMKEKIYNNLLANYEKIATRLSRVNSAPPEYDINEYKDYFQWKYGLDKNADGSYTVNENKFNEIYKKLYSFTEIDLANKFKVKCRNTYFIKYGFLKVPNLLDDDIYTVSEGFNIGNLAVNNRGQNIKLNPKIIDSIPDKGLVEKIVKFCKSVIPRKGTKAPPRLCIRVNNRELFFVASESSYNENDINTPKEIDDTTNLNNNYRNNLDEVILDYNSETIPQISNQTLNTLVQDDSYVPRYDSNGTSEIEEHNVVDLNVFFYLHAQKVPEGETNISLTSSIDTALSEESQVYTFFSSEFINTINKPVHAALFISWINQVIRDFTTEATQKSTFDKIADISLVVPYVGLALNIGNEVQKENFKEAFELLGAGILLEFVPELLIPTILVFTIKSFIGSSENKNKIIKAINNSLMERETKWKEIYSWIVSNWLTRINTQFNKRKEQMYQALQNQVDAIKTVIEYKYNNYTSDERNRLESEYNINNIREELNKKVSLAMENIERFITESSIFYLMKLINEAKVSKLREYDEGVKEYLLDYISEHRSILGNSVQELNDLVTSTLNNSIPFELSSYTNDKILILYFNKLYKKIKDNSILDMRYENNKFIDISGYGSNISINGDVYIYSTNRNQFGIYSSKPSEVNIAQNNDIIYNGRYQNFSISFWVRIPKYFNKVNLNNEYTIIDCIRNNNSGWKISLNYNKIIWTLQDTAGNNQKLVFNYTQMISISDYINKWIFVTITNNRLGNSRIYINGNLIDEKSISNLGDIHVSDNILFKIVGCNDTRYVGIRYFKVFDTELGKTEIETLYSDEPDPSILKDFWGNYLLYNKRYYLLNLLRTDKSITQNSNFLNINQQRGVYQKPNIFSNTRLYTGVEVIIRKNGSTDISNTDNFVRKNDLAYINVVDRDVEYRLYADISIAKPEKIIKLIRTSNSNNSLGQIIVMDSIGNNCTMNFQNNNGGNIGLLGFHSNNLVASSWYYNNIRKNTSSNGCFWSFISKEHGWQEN
- Assay Overview: yeast scFv FACS
pKd: −log10 of the molar value.
Measure Name: pKd

>  <Binder>
41C2 scFv (scFv, V domains shown) VH: EVQQVQSGGNLVQPGGSLRLSCAATGPIGSHWMTWVRQAPGQGLEWVANINLDGTEKFYVDSVKGRFTVSRDNRKSSVFLQMNNLRVDDTAVYYCARLQWGGYNGWLSPWGQGTLVTVSS VL: DIVMTQSPPSLSASVGDRVSLTCRASEYIGTSLNWYQQKPGKAPKLLIYAASALHSGVPSRFSGSGSGTDFTLTISGLQPEDFATYYCQQTNDLPLTFGGGTKLEIK

>  <Reported Value>
9.45

$$$$
>  <Binder>
41F7 scFv (scFv, V domains shown) VH: EVQLVPSGGNLVQPGGSLRLSCAATGPIGSHWMTWVRQAPGQGLEWVANINLDGTEKFYVDSVKGRFTVSRDNRKSSVFLQMNNLRVDDTAVYYCARLQWGGYNGWLSPWGQGTLVTVSS VL: DILMTQSPPSLSASVGDRVSLTCRASEYIGTSLNWYQQKPGKAPKLLIYAASALHSGVPSRFSGSGSGTDFTLTISGLQPEDFATYYCQQANDLPLTFGGGTKLEIK

>  <Reported Value>
9.25

$$$$
>  <Binder>
37B4 scFv (scFv, V domains shown) VH: QVQLVQSGAEVKKPGSSVKVSCKASGGTFSSYAISWVRQAPGQGLEWMGGIIPIFGTANYAQKFQGRVTITTDTSTSTAYMELRSLRSDDTAVYYCARDEDYYDSSGYYDYWGQGTLVTVSS VL: QTVVTQEPSLTVAPGGTVTLTCGSSAGAVTTDHYPSWFQKKPGQAPTTIIYDTTNKHSMTPGPARFSGSLLGGKAALTLSGAQPEDEAEYYCFLSYRGSRPVFGGGTKVTVL

>  <Reported Value>
7.99

$$$$
